Values compiled from patent US20150203840A1.

tgt: T1, human IL22R on BW-hIL22R cells (human, UniProt Q8N6P7 16-574)
T1 sequence (looked up): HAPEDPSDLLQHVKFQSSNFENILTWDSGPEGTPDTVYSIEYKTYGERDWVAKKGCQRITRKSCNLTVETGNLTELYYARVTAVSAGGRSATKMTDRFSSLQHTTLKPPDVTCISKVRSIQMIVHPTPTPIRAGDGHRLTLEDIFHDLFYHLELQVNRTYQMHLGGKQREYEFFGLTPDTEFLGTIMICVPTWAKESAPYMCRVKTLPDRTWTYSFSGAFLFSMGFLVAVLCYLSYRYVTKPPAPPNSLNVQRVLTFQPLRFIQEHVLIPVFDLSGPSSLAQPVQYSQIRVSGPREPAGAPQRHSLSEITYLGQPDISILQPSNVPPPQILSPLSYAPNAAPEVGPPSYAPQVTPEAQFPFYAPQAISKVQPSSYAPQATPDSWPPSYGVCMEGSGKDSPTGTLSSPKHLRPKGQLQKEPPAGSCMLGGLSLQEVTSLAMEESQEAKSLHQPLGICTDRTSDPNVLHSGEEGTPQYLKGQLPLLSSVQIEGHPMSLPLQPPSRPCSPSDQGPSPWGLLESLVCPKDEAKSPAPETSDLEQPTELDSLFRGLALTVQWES
protocol-summary: cell-based or functional assay
reported-metric: IC50 pM (potency on human IL22R expressing cells) (pM)
Numeric answer only, unit pM assumed.

What the record says about 198C9 (antibody, V domains shown, Vkappa-shuffled clone of 170B2 (keeps the 170B2 VH-CH1); also called VK_198C9) VH: EVQLVESGGGLVQPGGSLRLSCAASGFTFSSSWMYWVRQAPGKGLEFVSVINTRSGITHYVESVKGRFTISTDNAKNTLFLQMNSLKSEDTAVYYCATRIQGLIDYWGQGTQVTVSS VL: DIVMTQSPSSLSASLGDRVTITCQATQSISTFLSWYQQKPGQTPKLLVYGASRLQTGVPSRFSGTGSGTKFTLTISGVEAEDLASYFCLQDYSWPLTFGQGTKVELK : IC50 pM (potency on human IL22R expressing cells) is 89

Kindly consider the entry below.
Measured IC50 pM (potency on human IL22R expressing cells), 196F8 (antibody, V domains shown, Vkappa-shuffled clone of 170B2 (keeps the 170B2 VH-CH1); also called VK_196F8) VH: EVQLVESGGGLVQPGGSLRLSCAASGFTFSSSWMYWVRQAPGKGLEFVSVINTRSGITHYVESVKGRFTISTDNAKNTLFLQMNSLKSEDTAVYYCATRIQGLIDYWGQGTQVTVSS VL: DIQMTQSPSSLSASLGDRVTITCQASQSISSMLAWYQQKPGQAPNLLIYGASRLQTGVPSRFSGSRSGTSFTLTISGVEAEDLATYYCLQDYSWPLTFGQGTKVELK : 87
